- Experimental system: T1, hCMV gH, gL, UL128, UL130 and UL131A co-expressed in HEK293T cells (human cytomegalovirus, UniProt P12824 24-743; P16832 31-278; P16837 1-171; P16772 1-214)
- T1 construct: whole, on cells; also called gH + gL + UL128 + UL130 + UL131A; gH/gL/UL128-130 complex
- Method: cell cross-competition, 20x excess; competitor 2C12-biotin
Property: Inhibition of binding (%); scope: individual binders
Please provide the amount together with its unit, number first.

{"Binder": "7I13 (antibody, V domains shown, human IgG mAb) VH: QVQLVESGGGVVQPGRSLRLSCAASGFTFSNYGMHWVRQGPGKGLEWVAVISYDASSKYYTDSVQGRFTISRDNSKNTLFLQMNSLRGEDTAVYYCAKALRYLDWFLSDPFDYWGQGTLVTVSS VL: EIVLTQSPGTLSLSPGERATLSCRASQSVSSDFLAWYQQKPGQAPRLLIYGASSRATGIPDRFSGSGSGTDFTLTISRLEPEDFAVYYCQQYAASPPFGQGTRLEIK", "Inhibition of binding (%)": "0%"}

May I ask what Inhibition of binding (%) has been recorded for 4N10 (antibody, V domains shown, human IgG mAb; also called 4N10-biotin) VH: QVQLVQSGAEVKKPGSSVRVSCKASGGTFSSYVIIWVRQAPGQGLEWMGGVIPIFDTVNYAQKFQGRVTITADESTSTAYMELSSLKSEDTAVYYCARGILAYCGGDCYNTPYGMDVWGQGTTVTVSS VL: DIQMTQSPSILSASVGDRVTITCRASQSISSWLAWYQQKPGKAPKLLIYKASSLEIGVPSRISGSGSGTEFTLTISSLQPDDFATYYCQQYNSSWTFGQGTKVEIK ?
0%

May I ask what Inhibition of binding (%) has been recorded for 8C15 (antibody, V domains shown, human IgG mAb; also called 8C15-biotin) VH: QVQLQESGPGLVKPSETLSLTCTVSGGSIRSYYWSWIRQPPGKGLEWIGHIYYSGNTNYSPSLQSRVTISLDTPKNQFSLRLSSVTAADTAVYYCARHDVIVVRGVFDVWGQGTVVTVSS VL: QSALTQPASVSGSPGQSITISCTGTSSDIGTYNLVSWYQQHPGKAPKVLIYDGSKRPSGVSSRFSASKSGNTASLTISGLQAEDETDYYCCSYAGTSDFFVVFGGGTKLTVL ?
100%
